Target: HLA-A*26:01
Assay: IEDB peptide-MHC binding, purified MHC/competitive/fluorescence; filed as Kd, often an IC50 or EC50 that approximates it; bounds were set here for any values at or beyond the usual limits of such assays
Details: source organism: Yersinia mollaretii ATCC 43969
QUANTITY_NAME: Kd

[
  {
    "ENTRY_SEQUENCE": "DEQEFFYSQ",
    "OBSERVED_MEASUREMENT": "≥ 20 µM"
  }
]

###

Biological target: HLA-B*51:01
Assay: IEDB peptide-MHC binding, purified MHC/direct/fluorescence; filed as Kd, often an IC50 or EC50 that approximates it; bounds were set here for any values at or beyond the usual limits of such assays
Conditions: source organism: Orthohantavirus tulaense
QUANTITY_NAME: Kd

[
  {
    "ENTRY_SEQUENCE": "ATATWFQYY",
    "QUANTITY_NAME": "Kd",
    "OBSERVED_MEASUREMENT": "≥ 20 µM"
  }
]

###

Molecular target: HLA-A*11:01
Assay: IEDB peptide-MHC binding, purified MHC/competitive/radioactivity; filed as Kd, often an IC50 or EC50 that approximates it; bounds were set here for any values at or beyond the usual limits of such assays
Settings: source organism: Mammarenavirus whitewaterense
pKd: −log10 of the molar value.
Listed here: items and their measured pKd.
QUANTITY_NAME: pKd

[
  {
    "ENTRY_SEQUENCE": "ISSIIRSLPK",
    "QUANTITY_NAME": "pKd",
    "RELATION_SYMBOL": "=",
    "OBSERVED_MEASUREMENT": 7.64
  },
  {
    "ENTRY_SEQUENCE": "SRIFEDLVWK",
    "QUANTITY_NAME": "pKd",
    "RELATION_SYMBOL": "=",
    "OBSERVED_MEASUREMENT": 6.21
  },
  {
    "ENTRY_SEQUENCE": "PCMINDTHFL",
    "QUANTITY_NAME": "pKd",
    "RELATION_SYMBOL": "≤",
    "OBSERVED_MEASUREMENT": 4.33
  }
]

###

Molecular target: HLA-A*11:01
Assay: IEDB peptide-MHC binding, purified MHC/competitive/fluorescence; bounds were set here for any values at or beyond the usual limits of such assays
Conditions: source organism: Sudan ebolavirus
# Lookup of reported IC50 keyed by entry
QUANTITY_NAME: IC50

[
  {
    "ENTRY_SEQUENCE": "GTGPCPGDY",
    "TARGET_ENTITY": "HLA-A*11:01",
    "OBSERVED_MEASUREMENT": "≥ 114 µM"
  },
  {
    "ENTRY_SEQUENCE": "EDDDAASSR",
    "TARGET_ENTITY": "HLA-A*11:01",
    "OBSERVED_MEASUREMENT": "≥ 70.9 µM"
  },
  {
    "ENTRY_SEQUENCE": "GEWAFWENK",
    "TARGET_ENTITY": "HLA-A*11:01",
    "OBSERVED_MEASUREMENT": "26.2 µM"
  }
]

###

Molecular target: HLA-B*27:03
Experiment: IEDB peptide-MHC binding, purified MHC/direct/fluorescence; filed as Kd, often an IC50 or EC50 that approximates it; bounds were set here for any values at or beyond the usual limits of such assays
Settings: source organism: Brucella suis 1330
QUANTITY_NAME: Kd

[
  {
    "ENTRY_SEQUENCE": "MHCDFAFWV",
    "TARGET_ENTITY": "HLA-B*27:03",
    "OBSERVED_MEASUREMENT": "≥ 20 µM"
  }
]

###

Molecular target: HLA-A*02:06
Experiment: IEDB peptide-MHC binding, purified MHC/competitive/radioactivity; filed as Kd, often an IC50 or EC50 that approximates it; bounds were set here for any values at or beyond the usual limits of such assays
Conditions: source organism: Mammarenavirus tacaribeense
pKd: −log10 of the molar value.

[
  {
    "ENTRY_SEQUENCE": "YNCKCCWFA",
    "pKd": "≤ 4.11"
  }
]

###

Biological target: HLA-B*40:01
Test: IEDB peptide-MHC binding, purified MHC/direct/fluorescence; filed as Kd, often an IC50 or EC50 that approximates it; bounds were set here for any values at or beyond the usual limits of such assays
Settings: source organism: Mycobacterium tuberculosis variant bovis BCG str. Pasteur 1173P2

[
  {
    "ENTRY_SEQUENCE": "HPTSRRELL",
    "Kd": "≥ 20 µM"
  }
]

###

Biological target: HLA-A*01:01
Test: IEDB peptide-MHC binding, purified MHC/competitive/radioactivity; filed as Kd, often an IC50 or EC50 that approximates it; bounds were set here for any values at or beyond the usual limits of such assays
Conditions: source organism: Dengue virus 4 Dominica/814669/1981

[
  {
    "ENTRY_SEQUENCE": "ESQMLIPKSY",
    "Kd, µM": 8.37
  }
]

###

Target: HLA-A*29:02
Experiment: IEDB peptide-MHC binding, purified MHC/competitive/radioactivity; filed as Kd, often an IC50 or EC50 that approximates it; bounds were set here for any values at or beyond the usual limits of such assays
Settings: source organism: Mammarenavirus brazilense
Reported Kd values are given for each entry in this list.
QUANTITY_NAME: Kd (nM)

[
  {
    "ENTRY_SEQUENCE": "RLKGVTCRLF",
    "QUANTITY_NAME": "Kd",
    "UNITS_TEXT": "nM",
    "OBSERVED_MEASUREMENT": 395
  },
  {
    "ENTRY_SEQUENCE": "YNISRKIVY",
    "QUANTITY_NAME": "Kd",
    "UNITS_TEXT": "nM",
    "OBSERVED_MEASUREMENT": 2350
  }
]

###

Molecular target: HLA-B*07:02
Assay: IEDB peptide-MHC binding, purified MHC/competitive/fluorescence; bounds were set here for any values at or beyond the usual limits of such assays
Conditions: source organism: Homo sapiens
pIC50: −log10 of the molar value.
// reported pIC50 for each item listed
QUANTITY_NAME: pIC50

[
  {
    "ENTRY_SEQUENCE": "GSSDFQVHFLK",
    "OBSERVED_MEASUREMENT": "≤ 4.70"
  },
  {
    "ENTRY_SEQUENCE": "KVADVDLAVPV",
    "OBSERVED_MEASUREMENT": "≤ 4.70"
  }
]

###

Target: HLA-B*15:09
Test: IEDB peptide-MHC binding, purified MHC/direct/fluorescence; filed as Kd, often an IC50 or EC50 that approximates it; bounds were set here for any values at or beyond the usual limits of such assays
Conditions: source organism: Influenza B virus (B/Beijing/184/93)

[
  {
    "ENTRY_SEQUENCE": "TKDAERGKL",
    "Kd": "≥ 10 µM"
  }
]

###

Quick reference for Kd among some sequences
Molecular target: HLA-B*27:05
Assay: IEDB peptide-MHC binding, purified MHC/direct/fluorescence; filed as Kd, often an IC50 or EC50 that approximates it; bounds were set here for any values at or beyond the usual limits of such assays
Details: source organism: Vibrio cholerae

[
  {
    "ENTRY_SEQUENCE": "VLKLRFWLI",
    "Kd": "≥ 20 µM"
  },
  {
    "ENTRY_SEQUENCE": "GEHWLGRIW",
    "Kd": "13.1 µM"
  },
  {
    "ENTRY_SEQUENCE": "AEIDRSFKP",
    "Kd": "≥ 20 µM"
  }
]

###

Molecular target: HLA-B*15:01
Assay: IEDB peptide-MHC binding, purified MHC/direct/fluorescence; filed as Kd, often an IC50 or EC50 that approximates it; bounds were set here for any values at or beyond the usual limits of such assays
Conditions: source organism: SARS-CoV1
pKd: −log10 of the molar value.
Overview of recorded pKd for various sequences

[
  {
    "ENTRY_SEQUENCE": "YIFFASFYY",
    "pKd": 5.43
  },
  {
    "ENTRY_SEQUENCE": "VLWAHGFEL",
    "pKd": 6.21
  }
]

###

Target: HLA-B*54:01
Assay: IEDB peptide-MHC binding, purified MHC/competitive/radioactivity; filed as Kd, often an IC50 or EC50 that approximates it; bounds were set here for any values at or beyond the usual limits of such assays
Details: source organism: Vaccinia virus WR
pKd: −log10 of the molar value.

[
  {
    "ENTRY_SEQUENCE": "KTSTLIFFV",
    "RELATION_SYMBOL": "=",
    "pKd": 4.86
  },
  {
    "ENTRY_SEQUENCE": "SPYYIRKESY",
    "RELATION_SYMBOL": "=",
    "pKd": 6.17
  },
  {
    "ENTRY_SEQUENCE": "NPLFHGGEPI",
    "RELATION_SYMBOL": "=",
    "pKd": 6.42
  },
  {
    "ENTRY_SEQUENCE": "SLTIKDSSNK",
    "RELATION_SYMBOL": "≤",
    "pKd": 4.16
  },
  {
    "ENTRY_SEQUENCE": "YPEYNRAVKF",
    "RELATION_SYMBOL": "=",
    "pKd": 6.33
  },
  {
    "ENTRY_SEQUENCE": "DPMVIENGI",
    "RELATION_SYMBOL": "=",
    "pKd": 6.31
  },
  {
    "ENTRY_SEQUENCE": "RLYDYFTRV",
    "RELATION_SYMBOL": "≤",
    "pKd": 4.22
  },
  {
    "ENTRY_SEQUENCE": "DPSERVFKKI",
    "RELATION_SYMBOL": "≤",
    "pKd": 4.36
  },
  {
    "ENTRY_SEQUENCE": "FPGDKTSYWV",
    "RELATION_SYMBOL": "=",
    "pKd": 8.27
  },
  {
    "ENTRY_SEQUENCE": "MPTYKHLIMF",
    "RELATION_SYMBOL": "=",
    "pKd": 7.63
  }
]
